Test system: giant foxtail (Setaria faberii)
Method: Test C preemergence
Format: in vivo
Condition Parameters: Setaria faberi, pre-emergence, 336 h; 62 g ai/ha, preemergence; scale 0 to 100; read-out: Plant response rating, Foxtail, Giant
Assay Metric: pest or weed control at 62 g/ha (%)

> print(dat)
                              entry.smiles                     assay.metric  experimental.result
1  N#Cc1cccc(Oc2ncc(Br)cn2)c1Oc1ncc(Cl)cn1  pest or weed control at 62 g/ha                  100
2  N#Cc1cccc(Oc2ncc(Cl)cn2)c1Oc1ncc(Br)cn1  pest or weed control at 62 g/ha                  100
3   Fc1cnc(Oc2c(F)ccc(F)c2Oc2ncc(F)cn2)nc1  pest or weed control at 62 g/ha                   85
4  N#Cc1cccc(Oc2ncc(Cl)cn2)c1Oc1cnc(Cl)cn1  pest or weed control at 62 g/ha                  100

---

System: galium (catchweed bedstraw, Galium aparine)
Method: Test C postemergence
Assay type: in vivo
Condition Parameters: Galium, post-emergence, 336 h; Postemergence, 16 g ai/ha, scale 0 to 100; read-out: Plant response rating, Galium
From the text: […]
Each entry below lists one item and its recorded pest or weed control at 16 g/ha value.
Assay Metric: pest or weed control at 16 g/ha (%)

> print(dat)
                               entry.smiles                     assay.metric  experimental.result
1  Fc1cccc(Oc2ncc(C(F)(F)F)cn2)c1Oc1ncc(Cl)cn1  pest or weed control at 16 g/ha                   75
2  Fc1cccc(Oc2ncc(Cl)cn2)c1Oc1ncc(C(F)(F)F)cn1  pest or weed control at 16 g/ha                   35
3   N#Cc1cccc(Oc2ncc(Cl)cn2)c1Oc1cnc(Cl)cn1  pest or weed control at 16 g/ha                   80
4   N#Cc1cccc(Oc2ncc(Cl)cn2)c1Oc1ccc(Cl)cn1  pest or weed control at 16 g/ha                   60

---

Tested on: kochia (Kochia scoparia)
Method: Test A postemergence
Type: in vivo
Condition Parameters: Bassia scoparia, post-emergence, 240 h, 125 g ai/ha, 0 to 100 scale, read-out: Plant response rating, Kochia
Assay Metric: pest or weed control at 125 g/ha (%)

> print(dat)
                                   compound                      assay.metric  units.label  experimental.result
1  N#Cc1cccc(Oc2ncc(Cl)cn2)c1Oc1ccc(Cl)cn1 [Compound 16]  pest or weed control at 125 g/ha            %                  100
2  Fc1ccc(F)c(Oc2ncc(Br)cn2)c1Oc1ncc(Br)cn1 [Compound 31]  pest or weed control at 125 g/ha            %                   80
3  N#Cc1cccc(Oc2ncc(Cl)cn2)c1Oc1cccc(Cl)c1 [Compound 37]  pest or weed control at 125 g/ha            %                    0
4  FC(F)c1cccc(Oc2ncc(Br)cn2)c1Oc1ncc(Cl)cn1 [Compound 41]  pest or weed control at 125 g/ha            %                   90
5  N#Cc1cccc(Oc2ncc(Cl)cn2)c1Oc1ncc(C(F)(F)F)cn1 [Compound 38]  pest or weed control at 125 g/ha            %                  100

---

System: blackgrass (Alopecurus myosuroides)
Method: Test C preemergence
Assay type: in vivo
Condition Parameters: Alopecurus myosuroides, pre-emergence, 336 h; 31 g ai/ha, preemergence; scale 0 to 100; read-out: Plant response rating, Blackgrass
Assay Metric: pest or weed control at 31 g/ha (%)

> print(dat)
                                   compound                target.or.test.system                     assay.metric  experimental.result
1  Fc1ccc(F)c(Oc2ncc(Cl)cn2)c1Oc1ncc(Cl)cn1 [Compound 34]  blackgrass (Alopecurus myosuroides)  pest or weed control at 31 g/ha                    0
2  Clc1cnc(Oc2cccc(Cl)c2Oc2ncc(Br)cn2)nc1 [Compound 17]  blackgrass (Alopecurus myosuroides)  pest or weed control at 31 g/ha                   60
3  N#Cc1cccc(Oc2ncc(Cl)cn2)c1Oc1ncc(C(F)(F)F)cn1 [Compound 38]  blackgrass (Alopecurus myosuroides)  pest or weed control at 31 g/ha                   35
4  FC(F)c1cccc(Oc2ncc(Cl)cn2)c1Oc1ncc(Cl)cn1 [Compound 46]  blackgrass (Alopecurus myosuroides)  pest or weed control at 31 g/ha                   70
5  N#Cc1cccc(Oc2ncc(Cl)cn2)c1Oc1ncc(Cl)cn1 [Compound 3]  blackgrass (Alopecurus myosuroides)  pest or weed control at 31 g/ha                   70
6  Fc1cnc(Oc2c(Br)cccc2Oc2ncc(Cl)cn2)nc1 [Compound 22]  blackgrass (Alopecurus myosuroides)  pest or weed control at 31 g/ha                   10
7  N#Cc1cccc(Oc2ncc(Br)cn2)c1Oc1ncc(Cl)cn1 [Compound 5]  blackgrass (Alopecurus myosuroides)  pest or weed control at 31 g/ha                   30
8  Fc1cccc(Oc2ncc(Cl)cn2)c1Oc1ncc(C(F)(F)F)cn1 [Compound 43]  blackgrass (Alopecurus myosuroides)  pest or weed control at 31 g/ha                   50
9  Fc1cccc(Oc2ncc(Cl)cn2)c1Oc1ncc(Cl)cn1 [Compound 21]  blackgrass (Alopecurus myosuroides)  pest or weed control at 31 g/ha                   30

---

Test system: Italian ryegrass (Lolium multiflorum)
Method: Test C postemergence
Assay type: in vivo
Condition Parameters: Lolium multiflorum, post-emergence, 336 h; Postemergence, 125 g ai/ha, scale 0 to 100; read-out: Plant response rating, Ryegrass, Italian
Each entry below lists one item and its recorded pest or weed control at 125 g/ha value.
Assay Metric: pest or weed control at 125 g/ha (%)

> print(dat)
                               entry.smiles                      assay.metric  experimental.result
1  Fc1cccc(Oc2ncc(Cl)cn2)c1Oc1ncc(C(F)(F)F)cn1  pest or weed control at 125 g/ha                   15
2     Fc1cccc(Oc2ncc(Cl)cn2)c1Oc1ncc(Cl)cn1  pest or weed control at 125 g/ha                   25
3  FC(F)c1cccc(Oc2ncc(Cl)cn2)c1Oc1ncc(Cl)cn1  pest or weed control at 125 g/ha                   10
4     Fc1cnc(Oc2c(Cl)cccc2Oc2ncc(Cl)cn2)nc1  pest or weed control at 125 g/ha                    0
5   N#Cc1cccc(Oc2ncc(Cl)cn2)c1Oc1ncc(Cl)cn1  pest or weed control at 125 g/ha                    5
6   N#Cc1cccc(Oc2ncc(Cl)cn2)c1Oc1ccc(Cl)cn1  pest or weed control at 125 g/ha                   15
7  Fc1ccc(F)c(Oc2ncc(Cl)cn2)c1Oc1ncc(Cl)cn1  pest or weed control at 125 g/ha                    0

---

Each entry below lists one item and its recorded plant injury at 500 g/ha value.
Test system: wheat (Triticum aestivum)
Method: Test A postemergence
Assay type: in vivo
Condition Parameters: Triticum aestivum, post-emergence, 240 h, 500 g ai/ha, 0 to 100 scale, read-out: Plant response rating, Wheat
Assay Metric: plant injury at 500 g/ha (%)

> print(dat)
                                   compound      target.or.test.system  units.label  experimental.result
1  N#Cc1cccc(Oc2ncc(Cl)cn2)c1Oc1ncc(Cl)cn1 [Compound 3]  wheat (Triticum aestivum)            %                   80
2  N#Cc1cccc(Oc2ncc(Cl)cn2)c1Oc1ncc(Br)cn1 [Compound 4]  wheat (Triticum aestivum)            %                  100
3  Fc1cccc(Oc2ncc(Cl)cn2)c1Oc1ncc(Cl)cn1 [Compound 21]  wheat (Triticum aestivum)            %                   60
4  Clc1cnc(Oc2cccc(Br)c2Oc2ncc(Cl)cn2)nc1 [Compound 19]  wheat (Triticum aestivum)            %                   60

---

Each entry below lists one item and its recorded Plant response rating, Galium value.
System: galium (catchweed bedstraw, Galium aparine)
Method: Test A postemergence
Assay type: in vivo
Condition Parameters: 125 g ai/ha, 0 to 100 scale
Assay Metric: Plant response rating, Galium

> print(dat)
                               entry.smiles                     target.or.test.system                   assay.metric  experimental.result
1  Fc1ccc(F)c(Oc2ncc(C(F)(F)F)cn2)c1Oc1ncc(Cl)cn1  galium (catchweed bedstraw, Galium aparine)  Plant response rating, Galium                   90
2  FC(F)(F)c1cnc(Oc2c(Br)cccc2Oc2ncc(Cl)cn2)s1  galium (catchweed bedstraw, Galium aparine)  Plant response rating, Galium                  100
3  N#Cc1cccc(Oc2ncc(C(F)(F)F)cn2)c1Oc1ncc(C(F)(F)F)cn1  galium (catchweed bedstraw, Galium aparine)  Plant response rating, Galium                   70
4  N#Cc1cccc(Oc2ncc(Cl)cn2)c1Oc1ccc(C(F)(F)F)cn1  galium (catchweed bedstraw, Galium aparine)  Plant response rating, Galium                   50
